Assay: Solubility of compound in phosphate buffer at pH 6.8 by HPLC analysis
Type: physicochemical
// reported solubility per item
Numbers only; they are read as µg/mL.

// worked examples, solubility included
>  <smiles entry>
C=C(C)[C@@H]1CCC(C)=C[C@H]1c1c(O)cc(CCCCC)cc1O

>  <solubility (µg/mL)>
0.04

$$$$
>  <smiles entry>
C=C(C)[C@@H]1CCC(C)=C[C@H]1c1c(O)cc(CCCCC)c(C(N)=O)c1O

>  <solubility (µg/mL)>
0.6

$$$$

## Input What does the data say about its solubility? Entry: C=C(C)[C@@H]1CCC(C)=C[C@H]1c1c(O)cc(CCCCC)c(C(=O)NC)c1O
## Output 0.7

## Input Next compound: C=C(C)[C@@H]1CCC(C)=C[C@H]1c1c(O)cc(CCCCC)c(C(=O)N(C)C)c1O
## Output 3

* * *

// reported AUC(0-t) at 8 h per item
Assay: AUClast in ICR mouse at 25 mg/kg, po measured upto 8 hrs by LC-MS/MS analysis
Format: ADME, organism-based
Conditions: in vivo
Numbers only; they are read as ng·h/mL.

// worked examples, AUC(0-t) at 8 h included
>  <compound>
C=C(C)[C@@H]1CCC(C)=C[C@H]1c1c(O)cc(C2(CCCC)CC2)c(C(N)=O)c1O

>  <observed property>
AUC(0-t) at 8 h

>  <unit abbreviation>
ng·h/mL

>  <reported>
545

$$$$
>  <compound>
C=C(C)[C@@H]1CCC(C)=C[C@H]1c1c(O)cc(C2(CCCC)CC2)c(C(=O)N(C)C)c1O

>  <observed property>
AUC(0-t) at 8 h

>  <unit abbreviation>
ng·h/mL

>  <reported>
115

$$$$
>  <compound>
C=C(C)[C@@H]1CCC(C)=C[C@H]1c1c(O)cc(CCCCC)c(C(=O)N(C)C)c1O

>  <observed property>
AUC(0-t) at 8 h

>  <unit abbreviation>
ng·h/mL

>  <reported>
26.3

$$$$
>  <compound>
C=C(C)[C@@H]1CCC(C)=C[C@H]1c1c(O)cc(CCCCC)cc1O [CANNABIDIOL]

>  <observed property>
AUC(0-t) at 8 h

>  <unit abbreviation>
ng·h/mL

>  <reported>
289

$$$$
>  <compound>
C=C(C)[C@@H]1CCC(C)=C[C@H]1c1ccc(C2CC2)c(C(N)=O)c1O

>  <observed property>
AUC(0-t) at 8 h

>  <unit abbreviation>
ng·h/mL

>  <reported>
170

$$$$

## Input What does the data say about its AUC(0-t) at 8 h? Entry: C=C(C)[C@@H]1CCC(C)=C[C@H]1c1c(O)cc(C2CCCCC2)cc1O
## Output 616

## Input Next compound: C=C(C)[C@@H]1CCC(C)=C[C@H]1c1c(O)cc(C2CCCC2)cc1O
## Output 1080

* * *

// reported log10 of EC50 per item
Target: Cannabinoid receptor 2 (Homo sapiens, UniProt P34972)
Sequence (P34972 whole entry): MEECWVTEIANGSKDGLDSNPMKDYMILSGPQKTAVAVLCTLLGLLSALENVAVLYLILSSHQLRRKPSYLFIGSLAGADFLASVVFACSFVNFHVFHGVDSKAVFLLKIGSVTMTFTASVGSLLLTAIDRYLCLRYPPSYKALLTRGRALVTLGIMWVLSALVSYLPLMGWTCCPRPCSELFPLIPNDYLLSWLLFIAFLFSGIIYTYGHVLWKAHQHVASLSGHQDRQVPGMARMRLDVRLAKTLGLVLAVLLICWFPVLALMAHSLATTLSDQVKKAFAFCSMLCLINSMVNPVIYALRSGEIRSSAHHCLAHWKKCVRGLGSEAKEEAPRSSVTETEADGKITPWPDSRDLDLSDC
Assay: Partial agonist activity at human CB2 receptor expressed in CHO cells assessed as forskolin-stimulated cAMP formation preincubated with compound for 10 mins followed by forskolin induction and measured after 30 mins by HTRF analysis
Type: functional, cell-based
Values reflect log10 of reported EC50 (nM).

// worked examples, log10 of EC50 included
>  <smiles entry>
C=C(C)[C@@H]1CCC(C)=C[C@H]1c1c(O)cc(C2(CCCC)CC2)c(C(=O)N(C)C)c1O

>  <reported>
2.88

$$$$
>  <smiles entry>
C=C(C)[C@@H]1CCC(C)=C[C@H]1c1c(O)cc(C2CCCC2)cc1O

>  <reported>
2.05

$$$$
>  <smiles entry>
C=C(C)[C@@H]1CCC(C)=C[C@H]1c1c(O)cc(C2CCCCC2)cc1O

>  <reported>
1.74

$$$$
>  <smiles entry>
C=C(C)[C@@H]1CCC(C)=C[C@H]1c1c(O)cc(CCCCC)c(C(=O)N(C)C)c1O

>  <reported>
3.00

$$$$

## Input What does the data say about its log10 of EC50? Entry: C=C(C)[C@@H]1CCC(C)=C[C@H]1c1c(O)cc(C(=O)CCCC)cc1O
## Output 3.67

## Input Next compound: C=C(C)[C@@H]1CCC(C)=C[C@H]1c1ccc(C2CC2)c(C(N)=O)c1O
## Output 2.75

* * *

Biological target: Cannabinoid receptor 2 (Homo sapiens)
Test: Partial agonist activity at human CB2 receptor expressed in CHO cells assessed as forskolin-stimulated cAMP formation preincubated with compound for 10 mins followed by forskolin induction and measured after 30 mins by HTRF analysis relative to control
Type: functional, cell-based
Settings: filed as partial agonist, time 40.0 min
Lab note: compare Emax against 60%. Equal or greater, write Condition met. Smaller, write Condition not met.

Here are 5 molecules together with their reported answers.
>  <smiles entry>
C=C(C)[C@@H]1CCC(C)=C[C@H]1c1c(O)cc(C2CCCC2)cc1O

>  <class name>
Condition met

$$$$
>  <smiles entry>
C=C(C)[C@@H]1CCC(C)=C[C@H]1c1c(O)cc(C(=O)CCCC)cc1O

>  <class name>
Condition met

$$$$
>  <smiles entry>
C=C(C)[C@@H]1CCC(C)=C[C@H]1c1c(O)cc(C2(CCCC)CC2)c(C(=O)N(C)C)c1O

>  <class name>
Condition not met

$$$$
>  <smiles entry>
C=C(C)[C@@H]1CCC(C)=C[C@H]1c1c(O)cc(CCCCC)c(C(=O)N(C)C)c1O

>  <class name>
Condition met

$$$$
>  <smiles entry>
C=C(C)[C@@H]1CCC(C)=C[C@H]1c1ccc(C2CC2)c(C(N)=O)c1O

>  <class name>
Condition not met

$$$$

## Input Does Emax meet or surpass 60% for C=C(C)[C@@H]1CCC(C)=C[C@H]1c1c(O)cc(C2CCCCC2)cc1O ?
## Output Condition met

* * *

Molecular target: Cannabinoid receptor 2 (Homo sapiens, UniProt P34972)
Assay: Agonist activity at human CB2 receptor expressed in CHO cells assessed as forskolin-stimulated cAMP formation preincubated with compound for 10 mins followed by forskolin induction and measured after 30 mins by HTRF analysis
Assay type: functional, cell-based
observed property: EC50

// worked examples, EC50 included
>  <molecule>
C=C(C)[C@@H]1CCC(C)=C[C@H]1c1c(O)cc(C2(CCCC)CC2)c(C(N)=O)c1O

>  <subject of test>
Cannabinoid receptor 2 (Homo sapiens, UniProt P34972)

>  <EC50>
480 nM

$$$$
>  <molecule>
C=C(C)[C@@H]1CCC(C)=C[C@H]1c1c(O)cc(CCCCC)c(C(=O)NCCCCC)c1O

>  <subject of test>
Cannabinoid receptor 2 (Homo sapiens, UniProt P34972)

>  <EC50>
> 10 nM

$$$$
>  <molecule>
C=C(C)[C@@H]1CCC(C)=C[C@H]1c1c(O)cc(C2CC2)c(C(=O)NC)c1O

>  <subject of test>
Cannabinoid receptor 2 (Homo sapiens, UniProt P34972)

>  <EC50>
> 10000 nM

$$$$
>  <molecule>
C=C(C)[C@@H]1CCC(C)=C[C@H]1c1c(O)cc(CCCCC)c(C(=O)NC)c1O

>  <subject of test>
Cannabinoid receptor 2 (Homo sapiens, UniProt P34972)

>  <EC50>
> 10 nM

$$$$
>  <molecule>
C=C(C)[C@@H]1CCC(C)=C[C@H]1c1c(O)cc(CCC)cc1O [CANNABIDIVARIN]

>  <subject of test>
Cannabinoid receptor 2 (Homo sapiens, UniProt P34972)

>  <EC50>
> 10 nM

$$$$
>  <molecule>
C=C(C)[C@@H]1CCC(C)=C[C@H]1c1c(O)cc(CCCCC)c(C(=O)NC2CC2)c1O

>  <subject of test>
Cannabinoid receptor 2 (Homo sapiens, UniProt P34972)

>  <EC50>
> 10 nM

$$$$

## Input What does the data say about its EC50? Entry: C=C(C)[C@@H]1CCC(C)=C[C@H]1c1c(O)cc(C2(CCCC)CC2)c(C(=O)NC)c1O
## Output > 10000 nM

* * *

Molecular target: Cannabinoid receptor 2 (Homo sapiens, UniProt P34972)
Test: Agonist activity at CB2 receptor (unknown origin)
Format: functional
observed property: pEC50
// pEC50 is dimensionless: -log10 of concentration (M)

## Input What does the data say about its pEC50? Entry: Cc1ccc(CC2CN(C(=O)C3C(C)(C)[C@@H]4CC[C@]3(C)C4)N=C2c2ccc(Cl)c(C)c2)cc1 (stereo partly specified)
## Output 6.72

* * *

Biological target: Cannabinoid receptor 1 (Homo sapiens)
Sequence (P21554 whole entry): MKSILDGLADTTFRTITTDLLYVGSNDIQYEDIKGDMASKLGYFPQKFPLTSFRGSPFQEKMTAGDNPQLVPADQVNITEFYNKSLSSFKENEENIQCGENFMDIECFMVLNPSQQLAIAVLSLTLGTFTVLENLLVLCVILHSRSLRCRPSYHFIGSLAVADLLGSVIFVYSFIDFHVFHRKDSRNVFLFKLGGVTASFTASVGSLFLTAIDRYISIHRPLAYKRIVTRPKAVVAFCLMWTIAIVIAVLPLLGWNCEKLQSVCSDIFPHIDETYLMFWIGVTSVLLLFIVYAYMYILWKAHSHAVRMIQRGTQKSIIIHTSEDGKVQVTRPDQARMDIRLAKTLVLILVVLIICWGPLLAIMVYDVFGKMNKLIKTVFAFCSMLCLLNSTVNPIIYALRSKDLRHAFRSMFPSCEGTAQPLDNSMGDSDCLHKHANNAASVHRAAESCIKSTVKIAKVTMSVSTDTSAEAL
Test: Antagonist activity at human CB1 receptor expressed in CHO cells assessed as inhibition of forskolin-stimulated cAMP formation preincubated with compound for 10 mins followed by forskolin induction and measured after 30 mins by HTRF analysis
observed property: IC50

// worked examples, IC50 included
>  <smiles entry>
C=C(C)[C@@H]1CCC(C)=C[C@H]1c1c(O)cc(CCCCC)c(C(=O)NC)c1O

>  <IC50>
2.6 µM

$$$$
>  <smiles entry>
C=C(C)[C@@H]1CCC(C)=C[C@H]1c1c(O)cc(C2(CCCC)CC2)c(C(=O)NC)c1O

>  <IC50>
2.2 µM

$$$$
>  <smiles entry>
C=C(C)[C@@H]1CCC(C)=C[C@H]1c1c(O)cc(CCCCC)c(C(N)=O)c1O

>  <IC50>
2.7 µM

$$$$
>  <smiles entry>
C=C(C)[C@@H]1CCC(C)=C[C@H]1c1c(O)cc(CCC)cc1O

>  <IC50>
5.6 µM

$$$$
>  <smiles entry>
C=C(C)[C@@H]1CCC(C)=C[C@H]1c1c(O)cc(C2(CCCC)CC2)c(C(N)=O)c1O

>  <IC50>
3.2 µM

$$$$

## Input What value of IC50 on Cannabinoid receptor 1 (Homo sapiens) does C=C(C)[C@@H]1CCC(C)=C[C@H]1c1c(O)cc(C#CC)cc1O have?
## Output 3.3 µM

## Input Next molecule: C=Cc1cc(O)c([C@@H]2C=C(C)CC[C@H]2C(=C)C)c(O)c1
## Output 6.4 µM

## Input Next molecule: C=C(C)[C@@H]1CCC(C)=C[C@H]1c1c(O)cc(C(C)C)cc1O
## Output 0.018 µM

## Input Next molecule: C=C(C)[C@@H]1CCC(C)=C[C@H]1c1c(O)cc(C2(CCCC)CC2)c(C(=O)N(C)C)c1O
## Output 2.7 µM

## Input Next molecule: C=C(C)[C@@H]1CCC(C)=C[C@H]1c1c(O)cc(C(=O)CCCC)cc1O
## Output 9.9 µM

## Input Next molecule: C=C(C)[C@@H]1CCC(C)=C[C@H]1c1c(O)cc(-c2ccccc2)cc1O
## Output > 10 µM

## Input Next molecule: C=C(C)[C@@H]1CCC(C)=C[C@H]1c1c(O)cc(C2CC2)cc1O
## Output 4.4 µM

## Input Next molecule: C=C(C)[C@@H]1CCC(C)=C[C@H]1c1c(O)cc(CCCCC)c(C(=O)NCCCCC)c1O
## Output > 10 µM

## Input Next molecule: C=C(C)[C@@H]1CCC(C)=C[C@H]1c1c(O)cc(C(C)(C)CCCC)c(C(=O)NC)c1O
## Output 4.4 µM

## Input Next molecule: C=C(C)[C@@H]1CCC(C)=C[C@H]1c1c(O)cc(C2CC2)c(C(=O)NC)c1O
## Output > 10 µM
